Target: BRM (Homo sapiens)
Sequence (P51531 whole entry): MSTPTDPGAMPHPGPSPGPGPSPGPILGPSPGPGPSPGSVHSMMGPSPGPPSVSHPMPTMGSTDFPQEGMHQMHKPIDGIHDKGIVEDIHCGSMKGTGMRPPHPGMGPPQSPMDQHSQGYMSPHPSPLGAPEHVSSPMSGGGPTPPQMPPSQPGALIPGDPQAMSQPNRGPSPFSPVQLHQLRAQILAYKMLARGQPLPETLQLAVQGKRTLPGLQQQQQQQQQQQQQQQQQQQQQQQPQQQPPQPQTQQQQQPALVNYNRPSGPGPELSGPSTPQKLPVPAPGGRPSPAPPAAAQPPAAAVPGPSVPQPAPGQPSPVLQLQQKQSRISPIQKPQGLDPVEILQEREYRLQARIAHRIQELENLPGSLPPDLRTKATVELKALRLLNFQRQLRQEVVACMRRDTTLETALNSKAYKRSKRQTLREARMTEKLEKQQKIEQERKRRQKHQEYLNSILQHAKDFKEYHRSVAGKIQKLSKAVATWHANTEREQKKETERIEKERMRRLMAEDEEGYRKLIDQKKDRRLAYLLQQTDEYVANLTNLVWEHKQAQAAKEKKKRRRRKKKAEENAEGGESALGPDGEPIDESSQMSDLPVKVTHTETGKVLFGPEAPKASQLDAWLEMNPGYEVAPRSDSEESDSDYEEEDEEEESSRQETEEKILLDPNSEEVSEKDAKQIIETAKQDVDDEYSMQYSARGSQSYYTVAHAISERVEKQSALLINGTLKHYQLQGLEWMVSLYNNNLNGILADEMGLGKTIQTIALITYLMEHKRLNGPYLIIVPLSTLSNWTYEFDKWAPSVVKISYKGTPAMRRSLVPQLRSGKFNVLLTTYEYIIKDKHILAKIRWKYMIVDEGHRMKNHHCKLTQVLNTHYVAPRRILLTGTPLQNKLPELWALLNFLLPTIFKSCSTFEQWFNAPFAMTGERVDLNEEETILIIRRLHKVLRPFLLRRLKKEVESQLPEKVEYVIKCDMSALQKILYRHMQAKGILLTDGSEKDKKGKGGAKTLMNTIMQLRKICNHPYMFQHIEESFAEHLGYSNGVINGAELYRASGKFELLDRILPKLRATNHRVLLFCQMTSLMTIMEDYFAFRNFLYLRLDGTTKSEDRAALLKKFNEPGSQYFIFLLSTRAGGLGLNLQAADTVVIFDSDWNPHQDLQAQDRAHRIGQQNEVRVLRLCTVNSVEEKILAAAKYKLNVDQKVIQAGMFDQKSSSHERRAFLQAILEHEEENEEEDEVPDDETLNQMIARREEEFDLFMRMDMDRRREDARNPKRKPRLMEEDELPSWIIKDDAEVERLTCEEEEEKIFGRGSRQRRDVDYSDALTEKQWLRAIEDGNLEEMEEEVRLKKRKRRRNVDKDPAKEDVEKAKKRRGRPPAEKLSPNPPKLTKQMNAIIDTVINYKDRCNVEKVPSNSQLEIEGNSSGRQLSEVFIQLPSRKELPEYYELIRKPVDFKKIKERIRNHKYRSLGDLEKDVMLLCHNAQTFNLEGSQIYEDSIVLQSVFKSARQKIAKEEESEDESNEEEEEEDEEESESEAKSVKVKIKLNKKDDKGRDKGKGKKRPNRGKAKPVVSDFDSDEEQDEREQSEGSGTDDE
Experiment: ATPase catalytic activity assay (ADP-Glo), BRM
Details: BRM ATPase: IC50 (uM), 30 nM BRM, 400 μM ATP
Measured IC50 of individual entries

Consider the following illustrative entries.
# structure-smiles, IC50
measured = [
    ("C[C@@]1(F)COCc2ccc(C(=O)NCc3cc4nc(-c5cncc(N6CCC6)n5)ccc4nn3)cc21", "< 0.1 µM"),
    ("Cn1ccc2ccc(-c3ccc4cnc(CNC(=O)c5ccc6c(c5)[C@](C)(C#N)COC6)cc4n3)nc2c1=O", "0.1 to 0.5 µM"),
]

Kindly consider the entry below.
For the record `C[C@@]1(C#N)COCc2ccc(C(=O)NCc3cc4nc(-c5cnccn5)ccc4cn3)cc21` , what value of IC50 is listed for BRM (Homo sapiens)?
0.1 to 0.5 µM

----------
Measured pIC50 of individual entries
Molecular target: BRG-1 (Homo sapiens, UniProt P51532)
Sequence (P51532 whole entry): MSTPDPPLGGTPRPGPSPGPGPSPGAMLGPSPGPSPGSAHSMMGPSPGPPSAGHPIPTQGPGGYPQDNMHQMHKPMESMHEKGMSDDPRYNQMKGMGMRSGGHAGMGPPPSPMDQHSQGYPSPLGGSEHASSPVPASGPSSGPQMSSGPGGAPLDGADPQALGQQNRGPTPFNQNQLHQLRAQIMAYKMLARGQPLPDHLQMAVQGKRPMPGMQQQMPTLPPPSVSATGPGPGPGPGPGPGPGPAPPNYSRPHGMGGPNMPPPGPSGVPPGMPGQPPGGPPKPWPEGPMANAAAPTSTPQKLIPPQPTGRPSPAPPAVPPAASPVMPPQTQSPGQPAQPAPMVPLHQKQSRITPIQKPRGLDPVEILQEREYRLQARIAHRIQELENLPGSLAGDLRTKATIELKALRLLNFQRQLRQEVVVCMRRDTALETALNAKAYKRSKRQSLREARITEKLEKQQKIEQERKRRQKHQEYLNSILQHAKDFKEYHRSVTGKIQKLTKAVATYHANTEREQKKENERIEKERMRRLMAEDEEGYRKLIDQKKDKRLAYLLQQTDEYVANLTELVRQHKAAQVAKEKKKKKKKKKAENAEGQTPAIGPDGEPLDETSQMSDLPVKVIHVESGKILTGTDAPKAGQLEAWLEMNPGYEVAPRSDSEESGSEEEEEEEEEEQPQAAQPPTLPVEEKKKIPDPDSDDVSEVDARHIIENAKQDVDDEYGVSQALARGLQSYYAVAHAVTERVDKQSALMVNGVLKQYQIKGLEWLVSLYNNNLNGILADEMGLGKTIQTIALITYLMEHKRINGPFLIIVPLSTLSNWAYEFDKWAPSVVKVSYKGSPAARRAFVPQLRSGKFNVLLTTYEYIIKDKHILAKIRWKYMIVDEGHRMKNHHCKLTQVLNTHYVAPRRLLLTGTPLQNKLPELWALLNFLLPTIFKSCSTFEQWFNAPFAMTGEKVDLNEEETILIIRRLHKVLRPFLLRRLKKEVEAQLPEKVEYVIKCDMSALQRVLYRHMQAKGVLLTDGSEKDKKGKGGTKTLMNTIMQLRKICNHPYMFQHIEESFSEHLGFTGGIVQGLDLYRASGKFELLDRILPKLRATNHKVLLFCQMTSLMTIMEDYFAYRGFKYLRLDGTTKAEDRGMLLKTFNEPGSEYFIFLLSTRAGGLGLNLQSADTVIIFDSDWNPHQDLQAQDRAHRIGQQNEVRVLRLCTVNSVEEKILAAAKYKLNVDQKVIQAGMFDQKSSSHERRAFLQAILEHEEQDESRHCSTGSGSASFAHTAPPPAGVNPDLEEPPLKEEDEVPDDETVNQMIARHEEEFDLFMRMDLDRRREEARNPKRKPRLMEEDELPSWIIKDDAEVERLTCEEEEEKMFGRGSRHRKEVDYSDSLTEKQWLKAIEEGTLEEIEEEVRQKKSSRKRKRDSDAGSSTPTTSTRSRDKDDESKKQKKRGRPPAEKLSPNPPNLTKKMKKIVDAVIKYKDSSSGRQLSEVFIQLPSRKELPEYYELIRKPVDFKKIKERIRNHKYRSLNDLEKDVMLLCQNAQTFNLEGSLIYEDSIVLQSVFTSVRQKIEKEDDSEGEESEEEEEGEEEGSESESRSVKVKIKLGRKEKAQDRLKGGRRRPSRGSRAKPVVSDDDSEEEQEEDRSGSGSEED
Experiment: ATPase catalytic activity assay (ADP-Glo), BRG-1
pIC50: −log10 of the molar value.

Consider the following illustrative entries.
# compound, pIC50
rows = [
    ("Cc1cc(-c2ccc3cnc(CNC(=O)c4ccc5c(c4)[C@](C)(C#N)COC5)cc3n2)on1", "< 6.00"),
    ("COC(=O)c1cccc(C#Cc2ccnc(CNC(=O)c3ccc4c(c3)[C@](C)(O)COC4)c2)c1", "< 6.00"),
    ("Cn1ncc2c(-c3ccc4cnc(CNC(=O)c5ccc6c(c5)[C@](C)(C#N)COC6)cc4n3)cccc21", "6.30 to 7.00"),
]

pIC50 lookup needed for `C[C@@]1(C#N)COCc2ccc(C(=O)NCc3ncc4ccc(-c5cncc(C6CC6)n5)cc4n3)cc21` , thanks.
6.30 to 7.00

Field entry: `Cn1ccc2c(F)cc(-c3ccc4cnc(CNC(=O)c5ccc6c(c5)[C@](C)(C#N)COC6)cc4n3)cc2c1=O`
> 7.00

Field entry: C[C@@]1(C#N)COCc2ccc(C(=O)NCc3cc4nc(-c5ccnc(N6CC7CC7C6)n5)ccc4cn3)cc21 (stereo partly drawn)
6.30 to 7.00

----------
Biological target: BRM (Homo sapiens)
Experiment: ATPase catalytic activity assay (ADP-Glo), BRM
Conditions: BRM ATPase: IC50 (uM), 30 nM BRM, 400 μM ATP
assay-endpoint: IC50

Consider the following illustrative entries.
# compound, IC50
measured = [
    ("COCc1cc2c(-c3ccc4cnc(CNC(=O)c5ccc6c(c5)[C@](C)(C#N)COC6)cc4n3)cccc2n1C [Compound 141]", "< 0.1 µM"),
    ("C[C@@]1(C#N)COCc2ccc(C(=O)NCc3cc4nc(N5CCn6nccc6C5)ccc4cn3)cc21 [Compound 486]", "0.1 to 0.5 µM"),
    ("CCC(C)(O)c1cccc(-c2ccc3cnc(CNC(=O)c4ccc5c(c4)[C@](C)(F)COC5)cc3n2)n1 (stereo partly drawn) [Compound 205]", "0.1 to 0.5 µM"),
    ("COc1nn(CC(F)F)cc1-c1ccc2cnc(CNC(=O)c3ccc4c(c3)[C@](C)(C#N)COC4)cc2n1 [Compound 202]", "< 0.1 µM"),
    ("C[C@@]1(F)COCc2ncc(C(=O)NCc3cc4nc(-c5ccnc(N6CCC6)n5)sc4cn3)cc21 [Compound 244]", "0.1 to 0.5 µM"),
]

Kindly consider the entry below.
For the record C[C@@]1(C#N)COCc2ccc(C(=O)NCc3cc4cc(N5CCn6ncc(C(F)F)c6C5)cnc4cn3)cc21 [Compound 220] , what value of IC50 is listed for BRM (Homo sapiens)?
0.1 to 0.5 µM
